Origin of values: patent US4273777A

# testProtocol: Influence on the gastro-intestinal tract (ulceration of the gastric epithelium, pylorus ligated, Shay et al.)
# Format: in vivo, rat (Sprague Dawley)
# measurementParameters: versus control (distilled water) 3.0; oral
measuredParameter: Increase (of ulceration evaluation over control)
Lab note: record just the number, no unit beside it.

# compound, result
measured = [
    ("CC(C)(C)C(=O)OCOC(=O)c1cccnc1Nc1cccc(C(F)(F)F)c1", 0.2),
    ("Cc1cccc(Nc2ccccc2C(=O)OCOC(=O)C(C)(C)C)c1C", 0.4),
    ("CC(C)(C)C(=O)OCOC(=O)c1ccccc1Nc1cccc(C(F)(F)F)c1", 0.6),
    ("O=C(O)c1cccnc1Nc1cccc(C(F)(F)F)c1 [reference compound]", 0.9),
    ("O=C(OC1OC(=O)c2ccccc21)c1ccccc1Nc1cccc(C(F)(F)F)c1 (centres unmarked)", 0.5),
]

Inquiry: Provide only the value of recorded Increase (of ulceration evaluation over control) for Cc1c(Cl)cccc1Nc1ncccc1C(=O)OC1OC(=O)c2ccccc21 (centres unmarked)
Reply text: 0.6

Inquiry: Give the measured Increase (of ulceration evaluation over control) for O=C(O)c1ccccc1Nc1cccc(C(F)(F)F)c1 [N-(3'-trifluorotolyl)-anthranylic acid, reference compound]
Reply text: 1.9

Inquiry: For Cc1cccc(Nc2ccccc2C(=O)OC2OC(=O)c3ccccc32)c1C (centres unmarked) [Phthalidyl N-(2',3'-xylyl) anthranylate] , write its Increase (of ulceration evaluation over control).
Reply text: 0.3
